System: PEO-1
Assay: Excess HSA synergy score (sum over dose matrix of excess over highest single agent) (score (summed % response)); higher = less synergy / more antagonism (negative = synergy)
Details: 72 h; read-out: viability/apoptosis luminescence (CellTiter-Glo or Caspase3-Glo / not stated per table); matrix design: 6x6, 5-fold dilutions (primary screen)
In all, about 1,500 compounds were measured (“Excess HSA synergy score (sum over dose matrix of excess over highest single agent)”: median about 43, lowest 2% from about -900 on). Many of the other results were omitted from the sample, so the lowest values are more common in it than they were.
metric_name: Excess HSA synergy score
Could you keep your reply to the number by itself?

{"columns": ["compound", "Excess HSA synergy score"],
 "data": [
  ["COc1ccc(C(=O)CC2(O)C(=O)Nc3c(Cl)ccc(Cl)c32)cc1 (configuration not stated) + CC[C@H](NC(=O)[C@H](C)NC)C(=O)N1C[C@@H](O)C[C@H]1Cc1c(-c2[nH]c3cc(F)ccc3c2C[C@@H]2C[C@H](O)CN2C(=O)[C@H](CC)NC(=O)[C@H](C)NC)[nH]c2cc(F)ccc12 [Birinapant]", 27]
]}

Query: Item under review: CC(C)(C)[C@H](NC(=O)c1ccc(N)c(Cl)c1)C(=O)N1CCC[C@H]1C(=O)N[C@H](C#N)CC(=O)O + CC[C@H](NC(=O)[C@H](C)NC)C(=O)N1C[C@@H](O)C[C@H]1Cc1c(-c2[nH]c3cc(F)ccc3c2C[C@@H]2C[C@H](O)CN2C(=O)[C@H](CC)NC(=O)[C@H](C)NC)[nH]c2cc(F)ccc12 [Birinapant] . Reported Excess HSA synergy score?
Response: 307
